Data origin, for the record: ChEMBL document CHEMBL5247616

targetOfAssay: NADPH oxidase 2 (Homo sapiens, UniProt P04839)
Sequence (P04839 whole entry): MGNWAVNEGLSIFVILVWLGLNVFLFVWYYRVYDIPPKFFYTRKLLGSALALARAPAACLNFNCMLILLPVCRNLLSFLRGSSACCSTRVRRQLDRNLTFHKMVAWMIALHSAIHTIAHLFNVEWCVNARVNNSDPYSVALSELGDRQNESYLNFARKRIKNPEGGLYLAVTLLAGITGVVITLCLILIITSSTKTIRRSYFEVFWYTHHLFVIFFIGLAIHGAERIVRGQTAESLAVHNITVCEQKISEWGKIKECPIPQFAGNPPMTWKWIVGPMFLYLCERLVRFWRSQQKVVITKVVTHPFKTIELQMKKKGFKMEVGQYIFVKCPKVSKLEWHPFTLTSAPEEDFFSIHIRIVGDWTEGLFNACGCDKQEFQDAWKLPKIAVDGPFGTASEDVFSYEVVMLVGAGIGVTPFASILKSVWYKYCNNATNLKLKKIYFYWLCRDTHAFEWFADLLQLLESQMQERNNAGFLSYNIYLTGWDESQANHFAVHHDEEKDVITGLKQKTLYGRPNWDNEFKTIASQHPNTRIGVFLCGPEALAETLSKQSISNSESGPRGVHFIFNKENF
measurementProtocol: Inhibition of human NOX2 assessed as reduction in ROS production using lucigenin as substrate in presence of NADPH by chemiluminescence based microplate reader analysis
observationType: pIC50
Would you please state pIC50, meaning minus log10 of the concentration in mol/L, as a bare number?

Consider the following illustrative entries.
CCN(CC)c1ccc(/C=C2\C(=O)N(C3CCCCC3)C(=S)N2C)c(O)c1 :: 5.78
CN1C(=S)N(c2ccccc2)C(=O)/C1=C\c1ccc(N(C)C)cc1O :: 5.43
CN1C(=S)N(C2CCCCC2)C(=O)/C1=C\c1ccc(N(C)C)cc1O :: 5.53
CCN(CC)c1ccc(/C=C2\C(=O)N(c3ccccc3)C(=S)N2C)c(O)c1 :: 6.04
CN1C(=S)N(c2ccccc2)C(=O)/C1=C\c1ccc(N(C)CCO)cc1O :: 5.30

Pending compound:
Supply reported pIC50 belonging to this compound: `CN1C(=S)N(C2CCCCC2)C(=O)/C1=C\c1ccc(N(C)CCCO)cc1O`
5.47
